Molecular target: T1, His10/Avi Human IL33-01 (human)
T1 construct: Wild type mature IL-33 with N-terminal 10xHis, Avitag and Factor Xa site; biotinylated by BirA on the Avitag where used biotinylated; reduced form unless treated; also called N-terminal His Avi IL-33; His-Avi human IL-33 wild type
T1 chain: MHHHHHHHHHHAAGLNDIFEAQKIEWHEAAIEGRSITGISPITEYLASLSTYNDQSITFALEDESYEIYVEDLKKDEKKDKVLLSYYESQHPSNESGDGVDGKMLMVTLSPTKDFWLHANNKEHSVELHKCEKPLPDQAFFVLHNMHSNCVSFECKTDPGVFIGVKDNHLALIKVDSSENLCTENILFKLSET
Assay: HTRF epitope competition, IgG titrated; competitor DyLight labelled 33_640117 IgG; overnight
Endpoint: IC50

>  <Binder>
33_640082-7 IgG1 (antibody, V domains shown, IgG1) VH: EVQLLESGGGLVQPGGSLRLSCAASGFTFSSYAMSWVRQAPGKGLEWVSGISAIDQSTYYADSVKGRFTISRDNSKNTLYLQMNSLRAEDTAVYYCARQKFMQLWGGGLRYPFGYWGQGTMVTVSS VL: SYVLTQPPSVSVSPGQTASITCSGERMGDKYAAWYQQKPGQSPVLVIYRDTKRPSGIPERFSGSNSGNTATLTISGTQAMDEADYYCGVLKQDTGVFGGGTKVTVL

>  <Assay Value>
0.1 nM

$$$$
>  <Binder>
33_640087-7 IgG1 (antibody, V domains shown, IgG1) VH: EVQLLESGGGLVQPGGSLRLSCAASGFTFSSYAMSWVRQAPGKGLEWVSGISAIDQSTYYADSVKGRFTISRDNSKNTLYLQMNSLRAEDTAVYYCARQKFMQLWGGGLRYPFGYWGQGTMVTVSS VL: SYVLTQPPSVSVSPGQTASITCSGEGMGDKYAAWYQQKPGQSPVLVIYRDTKRPSGIPERFSGSNSGNTATLTISGTQAMDEADYYCGVIQDNTGVFGGGTKVTVL

>  <Assay Value>
0.1 nM

$$$$
>  <Binder>
33_640082-6 IgG1 (antibody, V domains shown, IgG1) VH: EVQLLESGGGLVQPGGSLRLSCAASGFTFSSYAMSWVRQAPGKGLEWVSGISGIDTSTYYADSVKGRFTISRDNSKNTLYLQMNSLRAEDTAVYYCARQKFMQLWGGGLRYPFGYWGQGTMVTVSS VL: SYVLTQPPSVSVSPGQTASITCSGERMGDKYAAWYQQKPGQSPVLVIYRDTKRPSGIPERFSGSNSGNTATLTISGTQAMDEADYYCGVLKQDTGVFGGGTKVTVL

>  <Assay Value>
0.1 nM

$$$$
>  <Binder>
33_640086-6 IgG1 (antibody, V domains shown, IgG1) VH: EVQLLESGGGLVQPGGSLRLSCAASGFTFSSYAMSWVRQAPGKGLEWVSGISGIDTSTYYADSVKGRFTISRDNSKNTLYLQMNSLRAEDTAVYYCARDKFMQLWGGGLRYPFGYWGQGTMVTVSS VL: SYVLTQPPSVSVSPGQTASITCSGERMGDKYAAWYQQKPGQSPVLVIYRDTKRPSGIPERFSGSNSGNTATLTISGTQAMDEADYYCEVKVKDTGVFGGGTKVTVL

>  <Assay Value>
0.1 nM

$$$$
>  <Binder>
33_640237 IgG1 (antibody, V domains shown, IgG1; also called ZZ1M37-E06) VH: EVQLLESGGGLVQPGGSLRLSCAASGFTFSSYAMSWVRQAPGKGLEWVSGIADDFTSTYYADPVKGRFTISRDNSKNTLYLQMNSLRAEDTAVYYCARDLWMMNYAGGLRYPFGYWGQGTTVTVSS VL: SYVLTQPPSVSVSPGQTASITCSGERMGDKYAAWYQQKPGQSPVLVIYRDTKRPSGIPERFSGSNSGNTATLTISGTQAIDEADYYCGVLKQDTGVFGGGTKVTVL

>  <Assay Value>
0.1 nM

$$$$
>  <Binder>
33_640050 IgG1 (antibody, V domains shown, IgG1; also called ZZ1F7Q-D10) VH: EVQLLESGGGLVQPGGSLRLSCAASGFTFSSYAMSWVRQAPGKGLEWVSAISGSGGSTYYADSVKGRFTISRDNSKNTLYLQMNSLRAEDTAVYYCPRHKFMQLWGGGLRYPFGYWGQGTMVTVSS VL: SYVLTQPPSVSVSPGQTASITCSGERMGDKYAAWYQQKPGQSPVLVIYQDTKRPSGIPERFSGSNSGNTATLTISGTQAMDEADYYCQVWDSSTGVFGGGTKVTVL

>  <Assay Value>
1.5 nM

$$$$
>  <Binder>
33_640201 IgG1 (antibody, V domains shown, IgG1; also called ZZ1JMY-H09) VH: EVQLLESGGGLVQPGGSLRLSCAASGFTFSSYAMSWVRQAPGKGLEWVSSIDAISSSTYYADSVKGRFTISRDNSKNTLYLQMNSLRAEDTAVYYCSRQKFMQLWGGGLRYPFGYWGQGTMVTVSS VL: SYVLTQPPSVSVSPGQTASITCSGERMGDKYAAWYQQKPGQSPVLVIYQDTKRPSGIPERFSGSNSGNTATLTISGTQAVDEADYYCGVLKQDTGVFGGGTKVTVL

>  <Assay Value>
0.2 nM

$$$$
>  <Binder>
33_640076-4 IgG1 (antibody, V domains shown, IgG1) VH: EVQLLESGGGLVQPGGSLRLSCAASGFTFSSYAMSWVRQAPGKGLEWVSGISAIDQSTYYADSVKGRFTISRDNSKNTLYLQMNSLRAEDTAVYYCARDLWMENWVGGLRYPFGYWGQGTMVTVSS VL: SYVLTQPPSVSVSPGQTASITCSGERMGDKYAAWYQQKPGQSPVLVIYRDTKRPSGIPERFSGSNSGNTATLTISGTQAMDEADYYCEVKKSDTGVFGGGTKVTVL

>  <Assay Value>
0.1 nM

$$$$
>  <Binder>
33_640081 IgG1 (antibody, V domains shown, IgG1; also called ZZ1JMB-H05) VH: EVQLLESGGGSVQPGGSLRLSCAASGFTFSSYAMNWVRQAPGKGLEWVSAISGSGGSTHYADSVKGRFTISRDNSKNTLYLQMNSLRAEDTAVYYCGRAKFMQLWGGGLRYPLGYWGQGTMVTVSS VL: SYVLTQPPSVSVSPGQTASITCSGERMGDKYAAWYQQKPGQSPVLVIYQDTKRPSGIPERFSGSNSGNTATLTISGTQATDEADYYCQVWAADDTGVFGGGTKVTVL

>  <Assay Value>
0.6 nM

$$$$
>  <Binder>
33_640084-2 IgG1 (antibody, V domains shown, IgG1) VH: EVQLLESGGGLVQPGGSLRLSCAASGFAFSSYAMSWVRQAPGKGLEWVSAISGSGGSTYYADSVKGRFTISRDNSKNTLYLQMNSLRAEDTAVYYCARQKFMQLWGGGLRYPFGYWGQGTMVTVSS VL: SYVLTQPPSVSVSPGQTASITCSGERMGDKYAAWYQQKPGQSPVLVIYRDTKRPSGIPERFSGSNSGNTATLTISGTQAMDEADYYCQVWRDDSPIFGGGTKVTVL

>  <Assay Value>
0.3 nM

$$$$

Measured values drawn from patent US20200353078A1 for this set.
